system: 5-hydroxytryptamine receptor 2A (Mus musculus) (UniProt P35363)
Sequence (P35363 whole entry, looked up): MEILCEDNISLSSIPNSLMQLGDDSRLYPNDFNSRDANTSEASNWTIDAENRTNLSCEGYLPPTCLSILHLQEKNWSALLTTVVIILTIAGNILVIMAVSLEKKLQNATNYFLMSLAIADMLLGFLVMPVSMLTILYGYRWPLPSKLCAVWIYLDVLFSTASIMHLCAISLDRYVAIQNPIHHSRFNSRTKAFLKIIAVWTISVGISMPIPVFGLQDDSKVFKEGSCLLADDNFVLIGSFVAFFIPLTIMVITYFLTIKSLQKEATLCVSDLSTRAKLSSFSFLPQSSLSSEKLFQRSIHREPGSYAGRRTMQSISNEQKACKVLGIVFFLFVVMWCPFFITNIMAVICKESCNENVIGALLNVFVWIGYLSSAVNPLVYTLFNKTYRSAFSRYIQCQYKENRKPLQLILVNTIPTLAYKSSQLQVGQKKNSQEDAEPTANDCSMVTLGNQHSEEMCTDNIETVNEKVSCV
assay.info: mouse Htr2a agonists via beta-arrestin recruitment, primary screen, cell-based, luminescence (AID 624169);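 also: 0% = plate median of compound wells and 100% = 30 µM serotonin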
experimental.conditions: CHO-K1 mHTR2A beta-arrestin complementation, at 7.6 µM, active compounds read high, percent of 30 µM serotonin response
About 2,400 (0.67%) of roughly 360,000 compounds were called active. The sample as a whole holds a higher share of actives than the screen did.
quantity.kind: activation (%)
Your answer should be a plain number; it is taken to be in %.

                                   molecule                                    system  readout_number
0       CCOCCCNC(=O)Cc1cc(=O)[nH]c(=O)[nH]1  5-hydroxytryptamine receptor 2A (Mus musculus) (UniProt P35363)            20.9
1  COC(=O)c1ccc(S(=O)(=O)N2CCC(c3nc4ccccc4o3)CC2)cc1  5-hydroxytryptamine receptor 2A (Mus musculus) (UniProt P35363)            2.01
2  O=C(Nc1ccccc1C(=O)O)c1ccc(N2C(=O)C3CC=CCC3C2=O)cc1 (configuration not stated)  5-hydroxytryptamine receptor 2A (Mus musculus) (UniProt P35363)           -7.43
3  Cc1cccc(C(=O)N[C@H](C(=O)NCc2cccs2)C(C)C)c1  5-hydroxytryptamine receptor 2A (Mus musculus) (UniProt P35363)             5.5

Record request: activation value, item O=C(NC(c1ccc(Cl)cc1)c1cnccn1)C1CCN(Cc2ccc(Cl)cc2)CC1 (configuration not stated)
-6.28

I would be grateful if you could share the reported activation for `Brc1cc(Br)c(Oc2cc(Br)c(Br)cc2Br)cc1Br` .
4.05

Which activation value belongs to `COc1cccc(NC(=O)CSc2nnc(-c3cccnc3)o2)c1` ?
14.9

Look at this molecule and give its reported activation. `C/C(=N\NC(=O)COc1c(C)cccc1C)c1cccs1`
14.4

Suppose we examine the molecule Cc1ccc(C(NC(=O)C2CCN(CCOc3ccc(Cl)cc3Cl)CC2)c2ccccn2)cc1 (configuration not stated) ; what activation value has been reported?
-3.52

For `Cc1ccc(S(=O)(=O)N2CCN(c3ncnc4ccccc34)CC2)cc1` , what is its reported activation?
16.6

# input molecule: CC(=O)c1ccc(OCC(=O)N(C)C2CCS(=O)(=O)C2)cc1 (configuration not stated) ; wanted: its activation
18.4

Recorded activation for `CCn1cc(C(=O)OCC(=O)Nc2cccc(C)c2)c(=O)c2ccc(C)nc21` , please?
20.9

Look at this molecule and give its reported activation. `CCCCNC(=O)C[C@@H]1C[C@@]2(C(=O)OCC)CCC=C2N(Cc2ccco2)C1=O`
-3.77

// query activation value for entry `N/C(=N\S(=O)(=O)c1cc(C(F)(F)F)cc(C(F)(F)F)c1)c1cccs1`
31.8

Name the recorded activation for `COC(=O)[C@@]1(Cc2ccc(F)cc2)[C@H]2c3cc(C(=O)N4CCCC4)n(C[C@H](O)CO)c3C[C@H]2CN1C(=O)c1ccccc1` .
3.75

Please report the recorded activation for `COc1ccc2c(c1)C(C)=CC(C)(C)N2C(=O)CNCc1ccc2c(c1)OCO2` .
-18.1

Any idea what activation was measured for COc1ccc(OC)c(C(O)c2ncc(-c3cccc(C(F)(F)F)c3)[nH]2)c1 (configuration not stated) ?
-2.32

// lookup activation for `Cc1onc(-c2ccccc2)c1-c1nnc(COC(=O)c2ccc(N(C)C)cc2)o1`
-6.2

For `CC(C)(C)NC(=O)Cn1cnc2cc([N+](=O)[O-])ccc2c1=O` , what is its reported activation?
-0.6
